assay: self-splicing fitness, log relative to wild type (ln ratio); higher = more splicing; Tetrahymena group I intron in knt gene, E. coli kanamycin selection, DiMSum; sequences stand for … in CUCUCU…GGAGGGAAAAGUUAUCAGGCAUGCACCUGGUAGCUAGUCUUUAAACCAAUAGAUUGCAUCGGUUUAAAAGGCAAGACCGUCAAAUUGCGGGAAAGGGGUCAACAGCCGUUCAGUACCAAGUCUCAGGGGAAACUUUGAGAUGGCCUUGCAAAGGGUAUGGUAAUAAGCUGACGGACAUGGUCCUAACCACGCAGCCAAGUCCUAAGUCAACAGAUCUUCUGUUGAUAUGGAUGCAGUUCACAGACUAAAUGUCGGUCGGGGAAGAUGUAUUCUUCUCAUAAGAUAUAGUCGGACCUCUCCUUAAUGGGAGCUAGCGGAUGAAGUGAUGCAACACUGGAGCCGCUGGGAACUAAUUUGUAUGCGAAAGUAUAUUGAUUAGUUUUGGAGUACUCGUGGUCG; conditions: 37 °C;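 further: selection with 25 µg/mL kanamycin versus none on LB agar overnight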
Measured self-splicing fitness (ln), listed per entry.
measure name: self-splicing fitness (ln)

sequence text	measure name	reported
UCAUAGCAAUAUUACGUAGA	self-splicing fitness (ln)	-1.8
AGUAAGCAAUAUUACGUAAG	self-splicing fitness (ln)	-1.96
CUGGAGCAAUAUUACGGAUA	self-splicing fitness (ln)	-1.35

----------
Measured self-splicing fitness (ln), listed per entry.
test: self-splicing fitness, log relative to wild type (ln ratio); higher = more splicing; Tetrahymena group I intron in knt gene, E. coli kanamycin selection, DiMSum; sequences stand for … in CUCUCU…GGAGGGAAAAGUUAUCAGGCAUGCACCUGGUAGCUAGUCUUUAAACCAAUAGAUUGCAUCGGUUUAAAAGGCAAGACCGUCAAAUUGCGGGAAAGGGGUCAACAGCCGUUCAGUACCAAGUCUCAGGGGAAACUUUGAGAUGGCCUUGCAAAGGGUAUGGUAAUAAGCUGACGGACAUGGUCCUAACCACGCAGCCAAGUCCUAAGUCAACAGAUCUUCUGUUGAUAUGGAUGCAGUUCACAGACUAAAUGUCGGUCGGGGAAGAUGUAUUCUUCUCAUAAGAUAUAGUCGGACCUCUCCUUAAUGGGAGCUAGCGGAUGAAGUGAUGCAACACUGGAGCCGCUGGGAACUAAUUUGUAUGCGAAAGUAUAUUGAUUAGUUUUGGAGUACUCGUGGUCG; conditions: 37 °C

sequence text	self-splicing fitness (ln)
GUAGAGCAAUAUUACGCCGU	-0.778
ACCAAGCAAUAUUACGCCAA	-2.71
GAGCAGCAAUAUUACGUCGU	-2.39
UGCUAGCAAUAUUACGUUAG	-3.02
GUCCAGCAAUAUUACGACAG	-1.93
GUACAGCAAUAUUACGUUGG	-2.16
CCCGAGCAAUAUUACGCAUC	-1.45
UGGCAGCAAUAUUACGGAGG	-1.87
ACGGAGCAAUAUUACGGCUA	-0.548
AUUUAGCAAUAUUACGAAUC	-3.21
GGACAGCAAUAUUACGCCAA	-1.24
ACAGAGCAAUAUUACGUCCG	-2.52
AAAAAGCAAUAUUACGUAGU	-1.69
ACGGAGCAAUAUUACGUGUA	-3.03
GUUCAGCAAUAUUACGCAUG	-1.02
GAGCAGCAAUAUUACGCCUG	-2.32
UUGGAGCAAUAUUACGUUGG	-2.92
CAGCAGCAAUAUUACGUCUA	0.377
GCUGAGCAAUAUUACGUACG	-1.16
CAGUAGCAAUAUUACGCGCU	-1.28
CACCAGCAAUAUUACGUUUG	-0.00269
CUUUAGCAAUAUUACGUCAG	-0.4
GUGGAGCAAUAUUACGGCGC	-0.0496
UACAAGCAAUAUUACGACUU	-0.692
GGCUAGCAAUAUUACGUAGA	-0.236
UUUUAGCAAUAUUACGCACU	-0.218
AGCGAGCAAUAUUACGUGAG	-2.79
AAAAAGCAAUAUUACGAAUA	-0.458
CCAUAGCAAUAUUACGUCGA	-2.2
UUCAAGCAAUAUUACGGGUA	-0.182
AAGGAGCAAUAUUACGCAUG	-2.65
UCAUAGCAAUAUUACGUGCG	-0.279
GGAAAGCAAUAUUACGUAGA	-1.4
UGUAAGCAAUAUUACGCUAG	-0.0644
CAUAAGCAAUAUUACGAUAC	-2.28
CGACAGCAAUAUUACGUGAC	-2.61
UACGAGCAAUAUUACGAAAG	-1.29
CAUGAGCAAUAUUACGAAUA	-2.72
CGCCAGCAAUAUUACGGUCC	-0.161
CUUGAGCAAUAUUACGACAC	-3.08
UUUAAGCAAUAUUACGGAAG	-1.37
GCUCAGCAAUAUUACGGCCA	-0.805

Where these numbers come from: the supplement of paper PMC7877785
